- Test system: HL-60(TB) leukemia
- EXPERIMENTAL PROTOCOL: NCI tumour cell line growth inhibition, 48 h
MEASURE NAME: TGI (µM)
Output spec: scalar in µM, unitless text.

Ask | Any idea what TGI was measured for C=CCNC1=C2C[C@@H](C)C[C@@H](OC)[C@H](OC(=O)CN)[C@H](C)/C=C(\C)[C@@H](OC(N)=O)[C@H](OC)/C=C\C=C(/C)C(=O)NC(=CC1=O)C2=O ?
Reply | 8.53

Ask | Any idea what TGI was measured for CCC(C(=O)[O-])C(=O)[O-].CCC(C(=O)[O-])C(=O)[O-].N.N.NCCCCCCN.[Pt+4].[Pt+4] ?
Reply | 4.63

Ask | Any idea what TGI was measured for CCCCCCCN1C(=O)C(O)(c2ccc(C3(O)C(=O)N(CCCCCCC)c4ccccc43)s2)c2ccccc21 (stereo not drawn) ?
Reply | 3.42

Ask | Any idea what TGI was measured for OC1CN2Cc3cc4c(cc3[C@]13C=C[C@@H](O)CC23)OCO4 (stereo partly drawn) ?
Reply | 75.3

----------
- System: DU-145 prostate
- EXPERIMENTAL PROTOCOL: NCI tumour cell line growth inhibition, 48 h
Assignment: determine reported TGI for the given compounds.

Ask | Any idea what TGI was measured for O=C(c1ccccc1)c1sc2c(=O)c(C(=O)c3ccccc3)c(C(=O)c3ccccc3)sc2c(=O)c1C(=O)c1ccccc1 ?
Reply | > 100 µM

Ask | Any idea what TGI was measured for O=C(/C=C/c1ccc(O)c(O)c1O)OCCc1ccccc1 ?
Reply | > 100 µM

Ask | Any idea what TGI was measured for CCOC(=O)/C=C(/C(=O)OCC)n1ccc(=O)n(/C(=C/C(=O)OCC)C(=O)OCC)c1=O ?
Reply | 34.9 µM

Ask | Any idea what TGI was measured for COc1ccc(C(=O)COc2cccc(/C=C3\CSc4ccc(C)cc4C3=O)c2)cc1 ?
Reply | > 100 µM

Ask | Any idea what TGI was measured for COc1ccc(-c2cc(=O)c3c(O)cc(C)cc3o2)cc1OC ?
Reply | > 100 µM

Ask | Any idea what TGI was measured for COc1ccc2c(c1)[n+](=O)c(C(=O)/C=C/c1cc(OC)c(OC)c(OC)c1)c(C)n2[O-] ?
Reply | 25.4 µM

----------
- Tested on: KM20L2 colon
- EXPERIMENTAL PROTOCOL: NCI tumour cell line growth inhibition, 48 h
MEASURE NAME: TGI

Ask | Any idea what TGI was measured for CCCCS(=O)(=O)Nc1ccc(Nc2c3ccccc3nc3ccccc23)c(OC)c1 ?
Reply | 11.9 µM

Ask | Any idea what TGI was measured for CCOC(=O)C1=C(C)N(NC(N)=O)C2(O)CCCC(=O)C12C (stereo not drawn) ?
Reply | > 100 µM

Ask | Any idea what TGI was measured for CC(=O)Nc1ccc(C(=O)NN2C(=O)C(Cl)C2c2ccccc2O)cc1 (stereo not drawn) ?
Reply | > 100 µM

Ask | Any idea what TGI was measured for O=c1cc(-c2ccc(Cl)cc2)oc2cc(OCCCOc3ccc4c(=O)cc(-c5ccc(Cl)cc5)oc4c3)ccc12 ?
Reply | > 100 µM

Ask | Any idea what TGI was measured for COc1cc(-c2cc(=O)c3cc(C)c(C)c(C(=O)O)c3o2)cc(OC)c1OC ?
Reply | > 100 µM

Ask | Any idea what TGI was measured for O=C(NNC(=O)c1cc(/C=C/c2cccc([N+](=O)[O-])c2)[nH]c(=S)n1)Nc1ccc(Cl)cc1 ?
Reply | > 100 µM

Ask | Any idea what TGI was measured for O=C(O)Cn1c(=O)[nH]c(=O)c2c1ncn2Cc1ccccc1 ?
Reply | > 100 µM

Ask | Any idea what TGI was measured for Cn1c2cc(O)cc(O)c2c(=O)c2c([N+](=O)[O-])cccc21 ?
Reply | > 100 µM
